measured on: DQB1*06:02
assay details: Peptide binding to HLA-DQ allele, competition assay
Design: species or system human
pIC50: −log10 of the molar value. No end group written: not given here.

[
  {
    "residues": "LSQLTYMIQFDQYI [Peptide 3563.0012]",
    "measured on": "DQB1*06:02",
    "pIC50": 4.37
  }
]

----------
measured on: DPB1*02:01
assay details: Peptide binding to HLA-DP allele, competition assay
measurement type: IC50 (µM)

[
  {
    "compound": "CC[C@H](C)[C@H](NC(=O)[C@H](Cc1ccc(O)cc1)NC(=O)[C@H](Cc1c[nH]cn1)NC(=O)[C@H](CC(C)C)NC(=O)[C@@H](N)Cc1ccccc1)C(=O)N[C@@H](Cc1ccccc1)C(=O)N[C@@H](CCSC)C(=O)N[C@@H](CCC(=O)O)C(=O)N[C@@H](CC(N)=O)C(=O)N[C@@H](C)C(=O)N[C@@H](Cc1ccccc1)C(=O)N[C@@H](CCC(=O)O)C(=O)N[C@@H](CC(C)C)C(=O)N1CCC[C@H]1C(=O)N[C@H](C(=O)O)[C@@H](C)O [Peptide 3563.0006]",
    "measured on": "DPB1*02:01",
    "numeric result": 0.04
  },
  {
    "compound": "CC[C@H](C)[C@H](NC(=O)[C@@H](NC(=O)[C@@H](N)CC(C)C)[C@@H](C)CC)C(=O)N[C@@H](CC(N)=O)C(=O)N[C@@H](Cc1c[nH]c2ccccc12)C(=O)N[C@@H](CC(C)C)C(=O)N[C@@H](CCC(N)=O)C(=O)N[C@@H](CCC(=O)O)C(=O)N[C@@H](C)C(=O)N[C@@H](CC(C)C)C(=O)N[C@@H](CO)C(=O)N[C@@H](CO)C(=O)N[C@@H](C)C(=O)N[C@@H](CO)C(=O)N[C@@H](CC(C)C)C(=O)O [Peptide 3563.0015]",
    "measured on": "DPB1*02:01",
    "numeric result": 16.3
  },
  {
    "compound": "CC[C@H](C)[C@H](N)C(=O)N[C@@H](CC(=O)O)C(=O)N[C@@H](CC(C)C)C(=O)N[C@@H](CO)C(=O)N[C@H](C(=O)N[C@@H](CCC(N)=O)C(=O)N[C@@H](CC(N)=O)C(=O)N[C@@H](Cc1ccc(O)cc1)C(=O)N[C@@H](Cc1c[nH]cn1)C(=O)N[C@H](C(=O)N[C@@H](Cc1ccccc1)C(=O)N[C@@H](CC(C)C)C(=O)N[C@H](C(=O)N[C@@H](Cc1ccc(O)cc1)C(=O)N[C@H](C(=O)O)[C@@H](C)CC)[C@@H](C)CC)[C@@H](C)O)[C@@H](C)CC [Peptide 3563.0029]",
    "measured on": "DPB1*02:01",
    "numeric result": 23.2
  }
]
